Below is a list of entries, each paired with its recorded growth value.
# System: HOP-92 NSCLC
# TEST_NAME: NCI-60 one-dose screen, 48 h (100 = growth as untreated, 0 = no growth, -100 = all killed)
# SETUP_CONDITIONS: 10 µM unless noted
This is part of a sample that, as a whole, favours compounds with a hit. Of some 83,000 tested, about 20% had one in any assay.
The reply should be a number in %, with the unit left off.

Study these solved cases before continuing.
COMPOUND	DISPLAY_UNIT	growth
CN(C)c1ccc2nc3ccc(=[N+](C)C)c([N+](=O)[O-])c-3sc2c1	%	38.7
COc1ccc(C(=O)N=Nc2c(O)n(C)c3ccccc23)cc1	%	86.1
Nc1nc(-c2cccc3ccccc23)cc2ccccc12	%	19
COc1cc(C(=O)/C=C/c2sc(Cl)nc2Cl)cc(OC)c1OC	%	51.4
COc1ccc(/C=N/Nc2cc(=O)[nH]c3ccc(Cl)cc23)cc1	%	70.8

compound CC(=O)N1N=C(c2ccc(Nc3nc(Nc4ccc(F)cc4)nc(Nc4ccc(Cl)cc4)n3)cc2)CC1c1ccc(Cl)cc1 (centres undefined) , growth observed: 64.1

# growth of CCOC(=O)CC1C(COC(=O)NC)OC(n2cnc3c(NC(=O)Nc4ccccc4)ncnc32)C1O[Si](C)(C)C(C)(C)C (centres undefined) = 62.1

Cited source for all entries: PubChem BioAssay (NCI)
